# Test system: MDA-MB-468 breast
# test_summary: NCI tumour cell line growth inhibition, 48 h
Reported TGI by item:
All answers are understood in µM, so give the number only.

These recorded examples may help you get a feel for the data.
- smiles_representation: "O=S(=O)(Nc1cc(Cl)ccc1Cl)c1ccc(-c2cnc(C3CC3)o2)cc1"
  test_system: "MDA-MB-468 breast"
  TGI [µM]: 30.1
- smiles_representation: "c1ccc(CN=C(NCc2ccccc2)NCc2ccccc2)cc1"
  test_system: "MDA-MB-468 breast"
  TGI [µM]: 5.38
- smiles_representation: "CCS(=O)(=O)Nc1cccc(Nc2c3cccc(C)c3nc3c(C)cccc23)c1OC"
  test_system: "MDA-MB-468 breast"
  TGI [µM]: 25.5

### Prompt State, in one line, measured TGI of COc1cnc2c(c1)C(=O)c1c-2n(CCCNC(C)C)c(=O)c2cc(F)ccc12
### Response 0.702
